Target: T1, SNTA1, Q13424
T1 sequence (Q13424 82-180, limits assumed, looked up): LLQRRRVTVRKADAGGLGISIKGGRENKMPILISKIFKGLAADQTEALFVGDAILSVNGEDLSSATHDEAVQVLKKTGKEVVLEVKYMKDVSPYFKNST
Assay: holdup assay
Set-up: key: below the threshold = too weak to quantify, mostly under pKd 3.1 to 4
Settings: plain residues with an end cap or a label only (N-terminal biotin on a linker: ado-ado)
Field: pKd. Provide a value for each of the binders that follow.
In your answer, state the number alone without any accompanying words.

-- ask Param item = EIPAQSPTCV [FZD10, Q9ULW2] ; retrieve measured pKd.
-- reply 3.83

-- ask Param item = DGVNEKVSCV [HTR2A, P28223] ; retrieve measured pKd.
-- reply 4.66

-- ask Param item = PSVGSKKTVL [REELD1, A0A1B0GV85] ; retrieve measured pKd.
-- reply 3.73

-- ask Param item = REEPDHSTEV [CCRL2, O00421] ; retrieve measured pKd.
-- reply 4.45
